Numbers sourced from paper PMC9495854.

# assayDetails: MTT cell viability assay, HepG2
# Assay type: cell-based
# assaySetup: human, HepG2 cells; HepG2, 1 h exposure
endpointName: IC50 at 1 h

molecule="O=C(NCC1CCN(Cc2ccccc2)CC1)c1ccc2c(c1)Nc1ccccc1S2 [Compound 11a]" endpointname="IC50 at 1 h" measuredresult="> 100 µM"
molecule="Cc1ccccc1CN1CCC(CNC(=O)c2ccc3c(c2)Nc2ccccc2S3)CC1 [Compound 11c]" endpointname="IC50 at 1 h" measuredresult="> 100 µM"
molecule="Cc1ccccc1CN1CCN(CCNC(=O)c2ccc3c(c2)Nc2ccccc2S3)CC1 [Compound 12c]" endpointname="IC50 at 1 h" measuredresult="> 100 µM"
molecule="O=C(NCC1CCN(Cc2ccccc2Cl)CC1)c1ccc2c(c1)Nc1ccccc1S2 [Compound 11b]" endpointname="IC50 at 1 h" measuredresult="> 100 µM"
molecule="O=C(NCC1CCN(Cc2ccccc2F)CC1)c1ccc2c(c1)Nc1ccccc1S2 [Compound 11d]" endpointname="IC50 at 1 h" measuredresult="> 100 µM"
molecule="O=C(NCCN1CCN(Cc2ccccc2F)CC1)c1ccc2c(c1)Nc1ccccc1S2 [Compound 12d]" endpointname="IC50 at 1 h" measuredresult="> 100 µM"
molecule="O=C(NCCN1CCN(Cc2ccccc2)CC1)c1ccc2c(c1)Nc1ccccc1S2 [Compound 12a]" endpointname="IC50 at 1 h" measuredresult="> 100 µM"
molecule="COc1cccc(CN2CCC(CNC(=O)c3ccc4c(c3)Nc3ccccc3S4)CC2)c1 [Compound 11e]" endpointname="IC50 at 1 h" measuredresult="> 100 µM"
molecule=CC(=O)N1c2ccccc2Sc2ccc(C(=O)NCCN3CCN(Cc4ccccc4Cl)CC3)cc21 endpointname="IC50 at 1 h" measuredresult="> 100 µM"
molecule="O=C(NCCN1CCN(Cc2ccccc2Cl)CC1)c1ccc2c(c1)Nc1ccccc1S2 [Compound 12b]" endpointname="IC50 at 1 h" measuredresult="> 100 µM"
